Reference source for all entries: BindingDB's records for doi:10.1111/cbdd.12457

test system: Prostaglandin G/H synthase 1 (Ovis aries)
Sequence (P05979 whole entry): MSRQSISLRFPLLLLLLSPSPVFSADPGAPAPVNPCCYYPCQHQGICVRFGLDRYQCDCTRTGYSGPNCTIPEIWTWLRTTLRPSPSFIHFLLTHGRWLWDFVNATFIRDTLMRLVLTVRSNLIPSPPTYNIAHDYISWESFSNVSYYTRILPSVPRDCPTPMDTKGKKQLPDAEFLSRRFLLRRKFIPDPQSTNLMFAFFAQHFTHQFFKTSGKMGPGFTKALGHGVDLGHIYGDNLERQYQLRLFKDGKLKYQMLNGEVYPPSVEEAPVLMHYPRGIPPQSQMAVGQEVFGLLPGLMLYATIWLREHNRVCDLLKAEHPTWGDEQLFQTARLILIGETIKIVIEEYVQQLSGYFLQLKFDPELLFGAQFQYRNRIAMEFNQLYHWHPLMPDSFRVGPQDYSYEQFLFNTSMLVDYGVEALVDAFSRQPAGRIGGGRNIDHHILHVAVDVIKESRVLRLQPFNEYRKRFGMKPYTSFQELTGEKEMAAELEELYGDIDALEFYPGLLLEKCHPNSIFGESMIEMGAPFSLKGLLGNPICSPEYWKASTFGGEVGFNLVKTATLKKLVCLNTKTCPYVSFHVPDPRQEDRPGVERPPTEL
measured property: IC50 (nM)
Quick note: give the figure in nM, leave out the unit.

Below, 5 compounds whose answers are already recorded.
[Q] Hello, I am looking for reported IC50 with Prostaglandin G/H synthase 1 (Ovis aries) for COc1cc2ccccc2c(C2CC(c3ccc4c(c3)OCCO4)=NN2C(N)=S)c1OC (stereo not given) . Could you help?
[A] 3420

[Q] Find IC50 (Prostaglandin G/H synthase 1 (Ovis aries)) for the entry COc1ccc2c(OC)ccc(C3CC(c4ccc5c(c4)OCCO5)=NN3C(N)=S)c2c1 (stereo not given)
[A] 2820

[Q] State its IC50 on Prostaglandin G/H synthase 1 (Ovis aries): COc1cc2ccccc2c(/C=C/C(=O)c2cc3ccccc3o2)c1OC
[A] 12500

[Q] Query IC50 on Prostaglandin G/H synthase 1 (Ovis aries) for COc1ccc2c(OC)ccc(C3CC(c4cc5ccccc5o4)=NN3C(N)=S)c2c1 (stereo not given)
[A] 7220

[Q] I'm curious: which IC50 was measured for COc1cc2ccccc2c(C2CC(c3ccc4c(c3)OCCO4)=NN2C(=O)Nc2ccc(Cl)cc2)c1OC (stereo not given) tested on Prostaglandin G/H synthase 1 (Ovis aries)?
[A] 1170

Continuing:
[Q] API: value(readout=IC50, system=Prostaglandin G/H synthase 1 (Ovis aries)) for record COc1ccc2c(OC)ccc(C3CC(c4ccc5c(c4)OCCO5)=NN3C(=O)Nc3ccc(Cl)cc3)c2c1 (stereo not given)
[A] 940

[Q] Request body: readout IC50, system Prostaglandin G/H synthase 1 (Ovis aries), query CN(C)c1ccc(C2CC(c3cc4ccccc4o3)=NN2C(N)=S)c2ccccc12 (stereo not given) . Return the value.
[A] 4530

[Q] Form field - read-out: IC50; system: Prostaglandin G/H synthase 1 (Ovis aries); submitted item: COc1cc2ccccc2c(C2CC(c3cc4ccccc4o3)=NN2C(N)=S)c1OC (stereo not given)
[A] 8060

[Q] Lab note: need IC50 with Prostaglandin G/H synthase 1 (Ovis aries) for entry COc1ccc2c(OC)ccc(C3CC(c4cc5ccccc5o4)=NN3C(=O)Nc3ccc(Cl)cc3)c2c1 (stereo not given) , please look it up.
[A] 2140
